Recorded measurements of IC50, one per entry
# Tested on: VCaP cells
# experiment.summary: Inhibition of VCaP cell proliferation (WST-8)
# Format: cell-based
# condition.parameters: Homo sapiens, 168 hours

See these solved cases before continuing.
molecule: COc1cc(O[C@H]2C(C)(C)[C@H](NC(=O)c3ccc(N4CCC(CN5CCC6(CCc7cc(F)c(C(=O)N[C@H]8CCC(=O)NC8=O)cc7O6)CC5)CC4)cc3)C2(C)C)ccc1C#N
IC50: > 10 µM

molecule: COc1cc(O[C@H]2C(C)(C)[C@H](NC(=O)c3ccc(N4CCC(C)(CN5CCC6(CCc7cc(F)c(C(=O)N[C@H]8CCC(=O)NC8=O)cc7O6)CC5)CC4)cc3)C2(C)C)ccc1C#N
IC50: > 10 µM

molecule: COc1cc(O[C@H]2C(C)(C)[C@H](NC(=O)c3ccc(N4CCC(C)(CN5CCC6(CC5)COc5cc7c(cc56)n(C)c(=O)n7C5CCC(=O)NC5=O)CC4)cc3)C2(C)C)ccc1C#N (relative stereo)
IC50: 0.001 µM

molecule: C[C@H]1CC2(CCN(c3ccc(C(=O)N4CCC(CN5CCC6(CC5)COc5ccc(NC7CCC(=O)NC7=O)cc56)CC4)cc3)CC2)CN1c1ccc(C#N)c(Cl)c1 (some centres unmarked)
IC50: 0.006 µM

Record Cn1c(=O)n(C2CCC(=O)NC2=O)c2cc3c(cc21)C1(CCN(CC2CCN(c4ccc(C(=O)N[C@H]5CC[C@H](Oc6ccc(C#N)c(Cl)c6)CC5)nn4)CC2)CC1)CO3 (some centres unmarked) / VCaP cells, IC50 recorded as 0.006 µM
